# TARGET ENTITY: Dipeptidyl peptidase 8 (Homo sapiens, UniProt Q6V1X1)
# Sequence (Q6V1X1 whole entry): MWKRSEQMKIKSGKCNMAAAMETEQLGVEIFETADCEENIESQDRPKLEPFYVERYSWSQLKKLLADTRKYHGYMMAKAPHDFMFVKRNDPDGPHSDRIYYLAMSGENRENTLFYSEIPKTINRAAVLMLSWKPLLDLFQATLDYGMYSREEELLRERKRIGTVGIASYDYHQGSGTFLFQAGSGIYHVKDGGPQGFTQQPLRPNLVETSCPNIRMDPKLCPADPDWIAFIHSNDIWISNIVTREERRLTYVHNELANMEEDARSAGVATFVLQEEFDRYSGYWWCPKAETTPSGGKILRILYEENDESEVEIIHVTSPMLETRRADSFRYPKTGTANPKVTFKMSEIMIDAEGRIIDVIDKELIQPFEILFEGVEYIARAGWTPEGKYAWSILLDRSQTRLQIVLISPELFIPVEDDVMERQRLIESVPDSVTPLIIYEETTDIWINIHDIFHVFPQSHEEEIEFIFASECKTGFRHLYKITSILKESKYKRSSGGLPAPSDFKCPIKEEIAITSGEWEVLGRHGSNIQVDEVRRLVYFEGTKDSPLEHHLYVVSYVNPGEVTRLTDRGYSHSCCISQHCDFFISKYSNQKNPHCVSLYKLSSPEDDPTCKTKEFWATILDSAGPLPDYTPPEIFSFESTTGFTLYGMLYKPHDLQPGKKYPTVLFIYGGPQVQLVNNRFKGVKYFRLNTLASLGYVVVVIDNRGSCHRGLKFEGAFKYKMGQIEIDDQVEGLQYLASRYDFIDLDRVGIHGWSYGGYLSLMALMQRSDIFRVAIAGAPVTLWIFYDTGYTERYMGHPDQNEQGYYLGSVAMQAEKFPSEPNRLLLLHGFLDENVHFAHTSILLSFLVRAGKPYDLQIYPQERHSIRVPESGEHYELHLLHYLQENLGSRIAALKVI
QUANTITY NAME: IC50

Ask: Could you share which IC50 value was measured for CS(=O)(=O)n1cc2c(n1)CN([C@H]1CO[C@H](c3cc(F)ccc3F)[C@@H](N)C1)C2 ?
Result: > 67 µM

* * *

# ASSAY PROCEDURE: Inhibition of potassium channel IKr (unknown origin)
pIC50: −log10 of the molar value.
QUANTITY NAME: pIC50

Ask: Entry under review: CS(=O)(=O)n1cc2c(n1)CN([C@H]1CO[C@H](c3cc(F)ccc3F)[C@@H](N)C1)C2 [OMARIGLIPTIN] . Reported pIC50?
Result: < 4.52

* * *

# TARGET ENTITY: Voltage-dependent L-type calcium channel subunit alpha-1C (Homo sapiens, UniProt Q13936)
# Sequence (Q13936 whole entry): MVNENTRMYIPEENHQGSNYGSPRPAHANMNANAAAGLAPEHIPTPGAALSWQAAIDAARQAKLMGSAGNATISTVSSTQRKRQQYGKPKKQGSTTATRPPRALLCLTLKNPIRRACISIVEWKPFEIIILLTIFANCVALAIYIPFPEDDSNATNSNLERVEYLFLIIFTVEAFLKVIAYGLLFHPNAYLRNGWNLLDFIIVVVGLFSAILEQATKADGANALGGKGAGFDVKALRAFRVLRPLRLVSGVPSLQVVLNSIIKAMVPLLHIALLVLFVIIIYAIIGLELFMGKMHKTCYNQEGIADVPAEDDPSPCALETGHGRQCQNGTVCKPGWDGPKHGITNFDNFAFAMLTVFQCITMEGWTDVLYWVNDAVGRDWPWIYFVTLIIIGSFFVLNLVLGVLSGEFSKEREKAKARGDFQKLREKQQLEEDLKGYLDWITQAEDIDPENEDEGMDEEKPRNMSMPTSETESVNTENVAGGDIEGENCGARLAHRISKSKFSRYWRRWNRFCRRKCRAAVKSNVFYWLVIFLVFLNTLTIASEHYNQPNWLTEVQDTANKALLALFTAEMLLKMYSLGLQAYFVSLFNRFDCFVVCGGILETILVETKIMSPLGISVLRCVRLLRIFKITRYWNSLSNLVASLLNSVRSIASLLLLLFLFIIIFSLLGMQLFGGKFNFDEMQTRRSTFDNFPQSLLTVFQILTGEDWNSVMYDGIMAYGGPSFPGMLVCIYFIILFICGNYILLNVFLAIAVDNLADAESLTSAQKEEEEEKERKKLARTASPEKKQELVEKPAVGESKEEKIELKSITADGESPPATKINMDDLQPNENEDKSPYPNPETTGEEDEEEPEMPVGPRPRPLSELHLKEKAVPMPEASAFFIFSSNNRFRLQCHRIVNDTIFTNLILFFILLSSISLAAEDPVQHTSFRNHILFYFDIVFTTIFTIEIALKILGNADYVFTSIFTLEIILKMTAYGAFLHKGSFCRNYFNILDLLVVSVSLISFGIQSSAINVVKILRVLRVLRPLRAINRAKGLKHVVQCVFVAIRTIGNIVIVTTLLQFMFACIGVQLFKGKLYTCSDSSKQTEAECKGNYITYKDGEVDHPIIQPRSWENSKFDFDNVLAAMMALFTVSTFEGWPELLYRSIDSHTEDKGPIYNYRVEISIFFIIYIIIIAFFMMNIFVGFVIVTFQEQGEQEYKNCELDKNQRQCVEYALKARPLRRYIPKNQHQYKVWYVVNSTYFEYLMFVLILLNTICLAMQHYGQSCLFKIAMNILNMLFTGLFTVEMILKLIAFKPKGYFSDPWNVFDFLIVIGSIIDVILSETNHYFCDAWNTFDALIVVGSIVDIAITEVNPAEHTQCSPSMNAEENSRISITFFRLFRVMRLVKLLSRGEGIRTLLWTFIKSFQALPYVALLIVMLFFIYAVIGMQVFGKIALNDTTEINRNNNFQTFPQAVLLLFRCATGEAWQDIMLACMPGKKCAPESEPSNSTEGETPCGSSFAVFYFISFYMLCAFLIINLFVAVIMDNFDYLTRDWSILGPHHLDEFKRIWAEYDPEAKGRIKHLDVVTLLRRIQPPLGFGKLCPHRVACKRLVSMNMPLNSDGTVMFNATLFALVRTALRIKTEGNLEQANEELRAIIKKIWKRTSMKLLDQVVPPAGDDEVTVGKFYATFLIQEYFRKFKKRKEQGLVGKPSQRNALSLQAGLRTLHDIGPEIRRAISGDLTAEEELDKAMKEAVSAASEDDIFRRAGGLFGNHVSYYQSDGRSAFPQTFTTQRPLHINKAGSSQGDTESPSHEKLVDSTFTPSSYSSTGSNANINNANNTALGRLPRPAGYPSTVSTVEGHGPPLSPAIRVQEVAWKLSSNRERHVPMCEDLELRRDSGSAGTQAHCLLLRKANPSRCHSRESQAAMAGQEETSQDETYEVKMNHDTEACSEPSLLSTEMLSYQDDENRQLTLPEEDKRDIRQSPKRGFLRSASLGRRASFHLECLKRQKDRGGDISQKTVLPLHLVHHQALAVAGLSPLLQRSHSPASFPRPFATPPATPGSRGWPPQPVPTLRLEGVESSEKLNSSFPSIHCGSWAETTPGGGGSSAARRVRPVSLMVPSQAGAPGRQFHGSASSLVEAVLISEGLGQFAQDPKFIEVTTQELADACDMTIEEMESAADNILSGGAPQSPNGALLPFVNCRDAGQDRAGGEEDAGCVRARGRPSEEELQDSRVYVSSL
# ASSAY PROCEDURE: Inhibition of Cav1.2 (unknown origin)
pIC50: −log10 of the molar value.
QUANTITY NAME: pIC50

Ask: Which measured pIC50 value corresponds to CS(=O)(=O)n1cc2c(n1)CN([C@H]1CO[C@H](c3cc(F)ccc3F)[C@@H](N)C1)C2 ?
Result: < 4.52

* * *

# ASSAY PROCEDURE: Ratio of drug level in brain to plasma in beagle dog
QUANTITY NAME: Kp

Ask: Sample CS(=O)(=O)n1cc2c(n1)CN([C@H]1CO[C@H](c3cc(F)ccc3F)[C@@H](N)C1)C2 [OMARIGLIPTIN] — what was its Kp?
Result: 0.6

* * *

# ASSAY PROCEDURE: Oral bioavailability in Sprague-Dawley rat at 2 mg/kg administered via gavage by LC-MS/MS analysis
# Format: ADME, organism-based
# ASSAY CONDITIONS: in vivo
QUANTITY NAME: bioavailability (%)
One number for each entry, in %.

Ask: Requested field: bioavailability. Item: CS(=O)(=O)n1cc2c(n1)CN([C@H]1CO[C@H](c3cc(F)ccc3F)[C@@H](N)C1)C2.O=C(O)C(F)(F)F
Result: 100

* * *

# TARGET ENTITY: Sodium channel protein type 5 subunit alpha (Homo sapiens, UniProt Q14524)
# Sequence (Q14524 whole entry): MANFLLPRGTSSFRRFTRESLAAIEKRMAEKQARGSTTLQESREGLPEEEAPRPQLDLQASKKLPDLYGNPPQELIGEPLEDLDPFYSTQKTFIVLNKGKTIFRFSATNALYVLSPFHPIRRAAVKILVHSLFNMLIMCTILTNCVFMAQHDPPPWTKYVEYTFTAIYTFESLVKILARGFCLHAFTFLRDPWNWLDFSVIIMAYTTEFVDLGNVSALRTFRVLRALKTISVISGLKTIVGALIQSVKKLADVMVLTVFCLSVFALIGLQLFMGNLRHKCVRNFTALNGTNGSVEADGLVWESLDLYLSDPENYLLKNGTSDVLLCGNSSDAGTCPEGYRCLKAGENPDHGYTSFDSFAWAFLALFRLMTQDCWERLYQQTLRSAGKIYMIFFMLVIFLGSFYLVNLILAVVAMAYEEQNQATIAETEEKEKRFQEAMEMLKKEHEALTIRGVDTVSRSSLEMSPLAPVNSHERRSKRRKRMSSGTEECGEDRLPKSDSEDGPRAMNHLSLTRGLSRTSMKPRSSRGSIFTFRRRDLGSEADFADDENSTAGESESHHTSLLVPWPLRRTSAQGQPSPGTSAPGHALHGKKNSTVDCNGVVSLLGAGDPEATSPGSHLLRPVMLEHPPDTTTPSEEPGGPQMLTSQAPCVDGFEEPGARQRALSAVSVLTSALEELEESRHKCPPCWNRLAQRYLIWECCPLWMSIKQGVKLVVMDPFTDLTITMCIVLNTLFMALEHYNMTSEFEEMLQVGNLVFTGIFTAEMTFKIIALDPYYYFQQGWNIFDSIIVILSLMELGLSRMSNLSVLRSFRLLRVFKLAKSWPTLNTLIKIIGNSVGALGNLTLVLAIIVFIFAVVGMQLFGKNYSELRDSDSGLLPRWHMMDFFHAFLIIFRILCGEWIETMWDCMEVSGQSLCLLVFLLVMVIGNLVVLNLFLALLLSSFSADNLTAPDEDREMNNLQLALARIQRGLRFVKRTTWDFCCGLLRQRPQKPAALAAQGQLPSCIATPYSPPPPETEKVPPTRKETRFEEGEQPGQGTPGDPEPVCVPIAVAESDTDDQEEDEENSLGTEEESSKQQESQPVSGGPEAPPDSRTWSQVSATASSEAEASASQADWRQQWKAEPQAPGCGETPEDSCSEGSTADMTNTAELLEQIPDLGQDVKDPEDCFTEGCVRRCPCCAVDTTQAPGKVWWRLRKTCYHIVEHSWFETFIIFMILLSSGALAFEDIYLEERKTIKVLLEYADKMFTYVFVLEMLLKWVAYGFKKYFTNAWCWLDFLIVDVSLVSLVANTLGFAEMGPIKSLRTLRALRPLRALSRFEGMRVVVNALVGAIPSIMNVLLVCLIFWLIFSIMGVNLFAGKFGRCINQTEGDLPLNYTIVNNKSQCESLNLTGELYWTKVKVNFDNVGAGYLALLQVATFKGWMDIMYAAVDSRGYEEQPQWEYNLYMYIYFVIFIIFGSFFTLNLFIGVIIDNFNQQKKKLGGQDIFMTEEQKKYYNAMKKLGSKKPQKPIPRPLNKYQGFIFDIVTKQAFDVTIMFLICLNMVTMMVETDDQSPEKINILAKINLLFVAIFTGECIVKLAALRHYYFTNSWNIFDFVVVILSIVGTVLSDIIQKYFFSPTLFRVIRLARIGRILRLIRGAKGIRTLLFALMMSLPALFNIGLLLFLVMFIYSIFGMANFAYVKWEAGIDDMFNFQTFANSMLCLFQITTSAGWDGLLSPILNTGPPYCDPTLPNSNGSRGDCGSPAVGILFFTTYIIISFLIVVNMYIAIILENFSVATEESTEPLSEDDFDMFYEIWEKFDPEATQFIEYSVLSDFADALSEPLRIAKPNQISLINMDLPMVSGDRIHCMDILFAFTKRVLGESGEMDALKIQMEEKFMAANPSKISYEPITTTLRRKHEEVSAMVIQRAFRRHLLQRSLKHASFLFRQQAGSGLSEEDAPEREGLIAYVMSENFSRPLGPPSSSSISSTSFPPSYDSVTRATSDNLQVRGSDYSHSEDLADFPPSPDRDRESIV
# ASSAY PROCEDURE: Inhibition of Nav1.5 (unknown origin)
pIC50: −log10 of the molar value.
QUANTITY NAME: pIC50

Ask: Fill blank: measured pIC50 of the molecule CS(=O)(=O)n1cc2c(n1)CN([C@H]1CO[C@H](c3cc(F)ccc3F)[C@@H](N)C1)C2 is ____.
Result: < 4.52

* * *

# ASSAY PROCEDURE: in vivo
# ASSAY CONDITIONS: beagle, dog
QUANTITY NAME: half-life (h)
One number for each entry, in h.

Ask: Quick one: half-life for CS(=O)(=O)n1cc2c(n1)CN([C@H]1CO[C@H](c3cc(F)ccc3F)[C@@H](N)C1)C2.O=C(O)C(F)(F)F ?
Result: 22

* * *

# ASSAY PROCEDURE: Unbound fraction in beagle dog plasma at 1 to 100 uM
# Type: ADME, cell-free, Canis lupus familiaris
QUANTITY NAME: fraction unbound at up to 100 µM
Numbers only.

Ask: Which fraction unbound at up to 100 µM value is on record for CS(=O)(=O)n1cc2c(n1)CN([C@H]1CO[C@H](c3cc(F)ccc3F)[C@@H](N)C1)C2 ?
Result: 0.43
